Each recorded value in this set is attributed to PubChem BioAssay (NCI).

- Test system: SK-OV-3 ovarian
- Test Summary: NCI-60 one-dose screen, 48 h (100 = growth as untreated, 0 = no growth, -100 = all killed)
- Measurement Conditions: 10 µM
This is part of a sample that, as a whole, favours compounds with a hit. Of some 83,000 tested, about 20% had one in any assay.
Reported Metric: growth (%)
I only need the number, in %, no unit after it.

Worked cases, answers included:
Give growth for COc1ccc(C2c3sc4ccc(C)cc4c3Oc3nc[nH]c(=O)c32)cc1 (configuration not stated)
81.2

Give growth for Cc1cc(N=C2NC(=O)/C(=C/c3cc(C(C)(C)C)c(O)c(C(C)(C)C)c3)S2)n[nH]1
-27.9

Give growth for CC1(C)CC[C@]2(C(=O)O)CC[C@]3(C)C(=CCC4[C@@]5(C)C[C@@H](O)[C@@H]6OC(c7cccc(F)c7)OC[C@@]6(C)C5CC[C@]43C)C2C1 (some centres not stated)
82.7

Now turn to the next compound.
Give growth for O=C(c1ccc(F)cc1)C(c1c[nH]c2ccccc12)c1c[nH]c2ccccc12
99.9

---

- Test system: MDA-MB-468 breast
- Test Summary: NCI-60 one-dose screen, 48 h
- Measurement Conditions: 10 µM unless noted
This is part of a sample that, as a whole, favours compounds with a hit. Of some 83,000 tested, about 20% had one in any assay. Active and inactive are the calls of the source. How the source made its calls: active means growth percent below 10; inactive means the rest.
Respond only with the outcome that fits, drawn from active, inactive

Solved entries:
Entry COC(=O)[C@@H](C)CNS(=O)(=O)N(c1cc(C(F)(F)F)cc(C(F)(F)F)c1)C1CCN(Cc2ccc(F)cc2)CC1 : call = ?
inactive

Entry O=C1OCC2=C1C(c1ccccc1)c1cc3c(cc1N2CCO)OCO3 (stereo not given) : call = ?
active

Entry COc1ccc2c(c1)C(=O)c1c-2c(OCCN(C)C)nc2cc(OC)c(OC)cc12 : call = ?
inactive

Entry CCNCCNc1cc(-c2ccc(Cl)cc2)c(C#N)c2nc3ccccc3n12 : call = ?
active

Entry CCOC(=O)C1=C(NC)OCC1=O : call = ?
inactive

Others:
Entry Cc1ccc(C)c2c1CCC2=O : call = ?
inactive

---

- Tested on: MDA-MB-468 breast
- Test Summary: NCI-60 one-dose screen, 48 h (100 = growth as untreated, 0 = no growth, -100 = all killed)
- Measurement Conditions: 10 µM unless noted
The panel holds about 83,000 compounds, 20% with a hit somewhere; the sample as a whole holds those more often.
Reported Metric: growth (%)
I only need the number, in %, no unit after it.

Worked cases, answers included:
Give growth for O=C(CN1CCCCCC1)Nc1nc2ccc(NCc3ccc(Cl)cc3)cc2s1
85.2

Give growth for Cc1cnc(/C=N\NC(N)=S)c2cccc(N)c12
-27.7

Give growth for Cc1ccc(C(=O)CC(=O)C(F)(F)C(F)(F)C(F)(F)F)s1
102

Others:
Give growth for CC[C@@H](C(=O)[C@H](C)[C@H](O)[C@@H](C)[C@H]1O[C@H]([C@@H](CC)C(=O)O)CC[C@H]1C)C1O[C@]2(C=C[C@@H](O)[C@]3(CC[C@@](C)([C@H]4CC[C@](O)(CC)[C@H](C)O4)O3)O2)[C@H](C)C[C@@H]1C (some centres undefined)
0.843

---

- Test system: MDA-MB-468 breast
- Test Summary: NCI-60 one-dose screen, 48 h
- Measurement Conditions: 10 µM unless noted
This is part of a sample that, as a whole, favours compounds with a hit. Of some 83,000 tested, about 20% had one in any assay. Activity calls are given as the source filed them. The calls were made as follows: active = growth percent below 10; inactive = the rest.
Respond only with the outcome that fits, drawn from T (active), F (inactive)

Solved entries:
Entry CCN1C(=O)N(CC)C2C1NN=c1s/c(=C\c3ccco3)c(=O)n12 (stereo unspecified) : call = ?
F

Entry N=C(N)c1ccc(-c2ccc(-c3ccc(Cl)cc3)s2)s1 : call = ?
T

Entry COc1ccc(-c2c(C)nn3c(NCCN4CCOCC4)cc(C)nc23)cc1OC : call = ?
F

Entry O=P([O-])(O)OP(=O)([O-])O.[NH-][C@H]1CCCC[C@@H]1[NH-].[OH-].[OH-].[Pt+4] : call = ?
F

Others:
Entry COc1cc(/C=C/c2ccccc2)cc(OC)c1 : call = ?
F

Entry Nc1ccc(Cl)c([N+](=O)[O-])c1 : call = ?
F

---

- Test system: MDA-MB-468 breast
- Test Summary: NCI-60 one-dose screen, 48 h
- Measurement Conditions: 10 µM unless noted
The panel holds about 83,000 compounds, 20% with a hit somewhere; the sample as a whole holds those more often. The source made the active and inactive calls. The calls were made as follows: active = growth percent below 10; inactive = the rest.
Respond only with the outcome that fits, drawn from active, inactive

Solved entries:
Entry CCCC(O)Cn1ncc(C(=O)OCC)c1NC(=O)NCc1ccccc1F (configuration not stated) : call = ?
inactive

Entry COc1ccc(C2CC(c3ccc(Nc4nc(NCCO)nc(Nc5ccc(Cl)cc5)n4)cc3)=Nc3c(N)nc(N)nc3N2)cc1 (configuration not stated) : call = ?
active

Entry CC1CCCN(CCCCOc2ccc(-c3ccc(C#N)cc3)cc2)C1 (configuration not stated) : call = ?
inactive

Entry c1ccc2c[n+](Cc3ccc4ccccc4n3)ccc2c1 : call = ?
active

Others:
Entry O=C1NCCc2c1noc2-c1ccccc1 : call = ?
inactive

Entry Cc1[nH]c(C(=O)Nc2cccc(OC3CCNCC3)c2)c(Cl)c1Cl : call = ?
inactive

Entry COc1ccc(Cl)cc1-n1nnc(-c2nc3ccccc3[nH]2)c1N : call = ?
inactive

Entry NC(=NCCCC1(c2ccccc2)CCCC1)Nc1ccc(Cl)cc1 : call = ?
active

Entry O=C(/C=C/c1ccco1)c1ccccc1O : call = ?
inactive

Entry Cc1nn(-c2ccc(Cl)cc2)c2nc3c(nc12)C(=O)C(=O)c1ccccc1-3 : call = ?
inactive

Entry O=C(CN1CCOCC1)Nc1nc(-c2cc3ccccc3oc2=O)cs1 : call = ?
inactive

Entry COc1ccc2c(c1)Oc1nc(N)c(C#N)c(N)c1C2Sc1ccc(SC)cc1 (configuration not stated) : call = ?
active

Entry COc1cc(OCc2cccc(-c3ccc4c(c3)OCCO4)c2C)cc(OC)c1C=O : call = ?
inactive

Entry O=C(C1=Cc2cc3ccccc3n2Cc2cnnn21)c1ccc(O)cc1 : call = ?
inactive

Entry O=c1[nH]c(=O)n(Cc2ccc(F)cc2)cc1F : call = ?
inactive

Entry CC(=O)Cc1cc(-c2cc(CC(C)=O)[nH]n2)n[nH]1 : call = ?
inactive

Entry C=C(C)[C@@H]1CCC[C@]2(C(=O)O)CC[C@]3(C)[C@@H](CC[C@@H]4[C@@]5(C)C/C(=C/c6ccncc6)C(=O)C(C)(C)[C@@H]5CC[C@]43C)[C@@H]12 : call = ?
inactive

---

- Tested on: SF-268 CNS
- Test Summary: NCI-60 one-dose screen, 48 h (100 = growth as untreated, 0 = no growth, -100 = all killed)
- Measurement Conditions: 10 µM
About 83,000 compounds went through this panel and 20% of them were active in at least one assay; those are over-represented in the sample as a whole.
Reported Metric: growth (%)
I only need the number, in %, no unit after it.

Worked cases, answers included:
Give growth for Cc1ccc2c(c1)C(=O)/C(=C/c1ccc([N+](=O)[O-])cc1)S2
96.4

Give growth for O=C(CSc1nc2ccccc2c(=O)n1-c1ccc(Cl)cc1)Nc1ccc(-c2nc3ccc([N+](=O)[O-])cc3[nH]2)cc1
38.4

Give growth for C#CCOc1cc(N(CC)CC)ccc1C(C(=O)NC(C)(C)C)N(C(=O)C1CCc2cc(F)ccc2O1)c1ccc(F)cc1F (centres undefined)
50.6

Give growth for Cc1ccc(-c2nc(C#N)c(S(=O)(=O)N3CCN(S(C)(=O)=O)CC3)o2)cc1
88.5

Give growth for COc1ccc(C(=O)COc2ccc(NC(=O)Nc3ccccc3)cc2)cc1
91.6

Now turn to the next compound.
Give growth for CCn1c(SCC(=O)Nc2ccc(-c3nc4ccccc4[nH]3)cc2)nc2ccccc2c1=O
-29.4

---

- Test system: ACHN renal
- Test Summary: NCI-60 one-dose screen, 48 h (100 = growth as untreated, 0 = no growth, -100 = all killed)
- Measurement Conditions: 10 µM
Compounds without any hit were thinned out: in the full panel of roughly 83,000, 20% have a hit.
Attribute: growth
I only need the number, in %, no unit after it.

Worked cases, answers included:
Give growth for C#C[C@]1(O)CC[C@H]2[C@@H]3CC=C4c5sc(Nc6ccc(C(F)(F)F)cn6)nc5CC[C@]4(C)[C@H]3CC[C@@]21C
0.62

Give growth for O=C(Nc1ccc(OCc2ccc(F)cc2)cc1)Nc1ccc(Cl)c(C(F)(F)F)c1
14.6

Give growth for CC1(C)CC[C@]2(C(=O)O)CC[C@]3(C)C(=CCC4[C@@]5(C)C[C@@H](O)[C@@H]6OC(c7cccc(F)c7)OC[C@@]6(C)C5CC[C@]43C)C2C1 (some centres undefined)
17.6

Others:
Give growth for COc1cc(Nc2nc(O)c(/C=C3\C=Nc4ccccc43)s2)cc(OC)c1OC
-2.09
